Provide the recorded pKd for the entries that follow.
- target_or_test_system: LC3B (UniProt Q9GZQ8 1-120)
- experimental_details: FP
Square brackets hold non-standard residues; d marks the D form. Ends that are not written are not given here. pS = N[C@@H](COP(=O)(O)O)C(=O)O
pKd is defined as minus the log10 of a concentration measured in mol/L.

Name the recorded pKd of the item TASDD[pS]DIVTLEPPK (also: N-terminal FITC in fluorescence polarisation assay only) [phospho-CCPG1 FIR2 synthetic peptide (p-CCPG1 FIR2)] in your answer. 4.69

Name the recorded pKd of the item TASDDSDIVTLEPPK (also: N-terminal FITC only in fluorescence polarisation assay form) [CCPG1 FIR2 synthetic peptide (residues 99–113)] in your answer. 4.39

Just for reference, paper PMC7946963 is where these values come from.
